protocol description: in vitro
setup conditions: rat, gh3-tre-luc cells, AC50 (uM) modified / 1000
For each of the compounds below, state its CC50 at 24 h.

Request the reported CC50 at 24 h associated with CC(C)CC#N > 90 µM

Query (compound): CN1CCN(CCCN2c3ccccc3Sc3ccc(S(=O)(=O)N(C)C)cc32)CC1 [Thioproperazine dimethanesulfonate] ; field requested: CC50 at 24 h 14.2 µM

Could you share which CC50 at 24 h value was measured for COc1cc(C(=O)N2CCOCC2)cc(OC)c1OC ? > 50 µM

What value of CC50 at 24 h has been recorded for this entry: C=Cc1ccc(S(=O)(=O)O)cc1 [Sodium 4-vinylbenzenesulfonate] 31.8 µM

Suppose we examine the compound C=CC(C)(CCC=C(C)C)OC(=O)C(C)C (stereo not shown) [Linalyl isobutyrate] ; what CC50 at 24 h value has been reported? > 90 µM

Please give the measured CC50 at 24 h for this compound: CCOC(=O)C(Br)c1ccccc1 (stereo not shown) [Ethyl bromophenylacetate] > 90 µM

Query: CC50 at 24 h; subject: COc1ccc([C@]2(C#N)CC[C@@H](C(=O)O)CC2)cc1OC1CCCC1 > 50 µM

Could you share which CC50 at 24 h value was measured for Nc1nnc(-c2cccc(Cl)c2Cl)c(N)n1 ? > 50 µM

// CC50 at 24 h lookup, key: OCC1CC=CCC1 (stereo not shown) > 90 µM

Please report the recorded CC50 at 24 h for Cc1ccc(C(C)(C)O)cc1 . > 90 µM

====

protocol description: in vitro
setup conditions: rat, gh3-tre-luc cells, AC50 (uM) modified / 1000, Tox21_110001=Tox21_202305; viability, 1 nM T3 present, 24 h
readout label: CC50 at 24 h

Looking for the measured CC50 at 24 h of Cc1ccccc1O [o-Cresol] , can you help? > 90 µM

====

Tested on: GH3-TRE-Luc cell line
setup conditions: read-out: AC50 (uM) modified / 1000; Tox21_110001=Tox21_202219; viability, 1 nM T3 present, 24 h
readout label: CC50 (µM)
Write the answer as a number in µM, unit excluded.

Return CC50 measured with GH3-TRE-Luc cell line given this molecule: O=C1OC(c2ccc(O)cc2)(c2ccc(O)cc2)c2ccccc21 25.4

====

protocol description: in vitro
setup conditions: rat, gh3-tre-luc cells, AC50 (uM) modified / 1000, Tox21_110001=Tox21_300651; viability, 1 nM T3 present, 24 h
readout label: CC50 at 24 h

Reported CC50 at 24 h for O=C(Nc1ccccc1)Nc1cnns1 : what is it? > 90 µM

====

Tested on: GH3-TRE-Luc cell line
setup conditions: read-out: AC50 (uM) modified / 1000; Tox21_110001=Tox21_303466; viability, 1 nM T3 present, 24 h
readout label: CC50 (µM)
Numeric only. Scale: µM

Which measured CC50 value corresponds to O=C(Nc1ccccc1SSc1ccccc1NC(=O)c1ccccc1)c1ccccc1 [2,2'-Dibenzoylaminodiphenyl disulfide] ? 72.6

====

protocol description: in vitro
setup conditions: rat, gh3-tre-luc cells, AC50 (uM) modified / 1000, Tox21_110001=Tox21_110445; viability, 1 nM T3 present, 24 h
readout label: CC50 at 24 h

Need CC50 at 24 h of CC1=C2[C@H]3OC(=O)[C@@H](C)[C@@H]3CC[C@@]2(C)C=CC1=O [alpha-Santonin] , thanks. > 50 µM
